The following molecules are listed with their measured Activity values.
System: Cryptosporidium hominis
Test: Anticryptosporidial activity against Cryptosporidium hominis TU502 assessed as inhibition of rabbit erythrocytes hemagglutinination relative to galactose
Format: functional

molecule: CC(=O)N[C@H]1C(O)O[C@H](CO)[C@H](O)[C@@H]1O (stereo partly specified)
Activity: 2
//
molecule: C[C@H](O)[C@@H](O)[C@@H](O)[C@H](O)C=O
Activity: <0.062
//
molecule: OC[C@H]1O[C@@H](O)[C@H](O)[C@@H](O)[C@@H]1O
Activity: 0.062
//
molecule: O=C[C@H](O)[C@@H](O)[C@@H](O)[C@H](O)CO
Activity: 1
//
molecule: CC(=O)N[C@@H]1[C@@H](O)[C@H](O)[C@@H](CO)O[C@H]1O
Activity: 0.062
//
molecule: OC[C@H]1OC(O)[C@@H](O)[C@@H](O)[C@@H]1O (stereo partly specified)
Activity: 0.062
